Kd values for the binders below.
target: T1, cynomolgus CD3εδ-Fc heterodimer (Cy CD3ε Fc / CD3δ Fc-HIS) (cynomolgus, UniProt Q95LI8 22-100); experiment: SPR (Biacore 8K), CHO-produced Fab, monovalent, pH 7.4
T1 construct: range 22-100; Produced in HEK 293 cells; also called Cy CD3εδ Fc heterodimer; not shown: Fc-HIS part of CD3δ Fc-HIS
T1 sequence (chain, as listed by the source mutant, form in doubt, chain 1 of 2): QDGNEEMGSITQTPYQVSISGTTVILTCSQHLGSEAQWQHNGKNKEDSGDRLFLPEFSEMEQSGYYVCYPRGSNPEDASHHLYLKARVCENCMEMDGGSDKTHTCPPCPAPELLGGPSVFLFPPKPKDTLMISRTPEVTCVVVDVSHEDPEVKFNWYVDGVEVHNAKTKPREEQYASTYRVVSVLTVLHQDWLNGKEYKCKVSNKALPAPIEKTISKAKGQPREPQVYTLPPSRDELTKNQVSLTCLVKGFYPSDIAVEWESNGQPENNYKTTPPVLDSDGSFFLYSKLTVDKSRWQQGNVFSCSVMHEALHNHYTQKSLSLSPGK
T1 sequence (Q95LI8 22-100, stated change not applied, form in doubt, chain 2 of 2): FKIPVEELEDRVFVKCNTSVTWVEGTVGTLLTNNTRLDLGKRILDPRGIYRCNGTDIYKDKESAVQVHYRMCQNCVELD
API: value field is a number in nM; no unit string.

As a guide, the following entries are already answered.
[
  {
    "binder": "Fab of ADI-74968 (Antibody No. 6) (Fab, V domains shown, Fab made by papain digestion of the human IgG1 (yeast- or CHO-produced); also called Antibody No. 6 Fab; ADI-74968 Fab) VH: QVQLVQSGAEVKKPGASVKVSCKASGFNIKDYYMHWVRQAPGQRLEWMGWIDLENANTIYDAKFQGRVTITRDTSASTAYMELSSLRSEDTAVYYCARDAYHRYFYDVWGQGTLVTVSS VL: DIVMTQSPDSLAVSLGERATINCKSSQSLLNARTGHNYLAWYQQKPGQPPKLLIYWASTRESGVPDRFSGSGSGTDFTLTISSLQAEDVAVYYCKQSYSHRTFGGGTKVEIK",
    "uom": "nM",
    "Kd": 46.5
  },
  {
    "binder": "Fab of ADI-74967 (Antibody No. 5) (Fab, V domains shown, Fab made by papain digestion of the human IgG1 (yeast- or CHO-produced); also called Antibody No. 5 Fab; ADI-74967 Fab) VH: QVQLVQSGAEVKKPGASVKVSCKASGFNIKDYYMHWVRQAPGQRLEWMGWIDLENANTIYDAKFQGRVTITRDTSASTAYMELSSLRSEDTAVYYCARDHYHRYFYDVWGQGTLVTVSS VL: GIVMTQSPDSLAVSLGERATINCKSSQSLLNARTGKNYLAWYQQKPGQPPKLLIYWASTRESGVPDRFSGSGSGTDFTLTISSLQAEDVAVYYCKQSHSHRTFGGGTKVEIK",
    "uom": "nM",
    "Kd": 73.7
  },
  {
    "binder": "Fab of ADI-26906 (Antibody No. 1) (Fab, V domains shown, Fab made by papain digestion of the human IgG1 (yeast- or CHO-produced); also called Antibody No. 1 Fab; ADI-26906 Fab) VH: QVQLVQSGAEVKKPGASVKVSCKASGFNIKDYYMHWVRQAPGQRLEWMGWIDLENANTIYDAKFQGRVTITRDTSASTAYMELSSLRSEDTAVYYCARDAYGRYFYDVWGQGTLVTVSS VL: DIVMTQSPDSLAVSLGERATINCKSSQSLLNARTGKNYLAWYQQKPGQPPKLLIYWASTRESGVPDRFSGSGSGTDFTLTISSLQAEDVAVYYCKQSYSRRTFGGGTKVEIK",
    "uom": "nM",
    "Kd": 1.09
  }
]

Turning now to a further binder:
Looking up Fab of ADI-48587 (Antibody No. 2) (Fab, V domains shown, Fab made by papain digestion of the human IgG1 (yeast- or CHO-produced); also called Antibody No. 2 Fab; ADI-48587 Fab) VH: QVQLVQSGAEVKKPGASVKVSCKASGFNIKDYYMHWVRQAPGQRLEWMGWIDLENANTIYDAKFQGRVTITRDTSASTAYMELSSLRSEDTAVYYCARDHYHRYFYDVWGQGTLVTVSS VL: DIVMTQSPDSLAVSLGERATINCKSSQSLLNARTGHNYLAWYQQKPGQPPKLLIYWASTRESGVPDRFSGSGSGTDFTLTISSLQAEDVAVYYCKQSHSHRTFGGGTKVEIK , I see its Kd listed as 62.7
